Biological target: T1, mouse MerTK (mouse, UniProt Q60805 23-496)
T1 construct: also called MuMER
T1 sequence (looked up): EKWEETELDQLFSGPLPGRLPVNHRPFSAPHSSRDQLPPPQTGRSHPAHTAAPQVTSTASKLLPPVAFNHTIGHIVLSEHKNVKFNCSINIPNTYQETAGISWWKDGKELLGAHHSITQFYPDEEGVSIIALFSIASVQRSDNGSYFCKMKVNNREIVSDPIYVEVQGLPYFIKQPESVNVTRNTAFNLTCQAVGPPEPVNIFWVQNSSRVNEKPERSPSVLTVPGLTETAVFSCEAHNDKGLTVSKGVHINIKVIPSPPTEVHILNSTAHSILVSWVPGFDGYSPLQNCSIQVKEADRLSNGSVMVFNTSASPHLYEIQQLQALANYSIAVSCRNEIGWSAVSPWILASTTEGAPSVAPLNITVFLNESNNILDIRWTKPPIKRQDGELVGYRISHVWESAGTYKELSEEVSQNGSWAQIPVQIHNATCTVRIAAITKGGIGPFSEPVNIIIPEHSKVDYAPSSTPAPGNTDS
Assay: SPR BIAcore T200, Ab captured, 37C
Endpoint Label: Kd (nM)
Reply numerically in nM, unit not repeated.

Any idea what Kd was measured for h9E3.FN.v1 (antibody, V domains shown, also called h9E3.FN.V1 (Parent); 9E3.FN Humanized mAb V1) VH: EQQLVESGGGLIQPGGSLRLSCAVSGFSLSSNAMSWVRQAPGKGLEWIGIISSSGSTYSASWAKGRFTISKDSSKNTMYLQMNSLRAEDTAVYFCARVGFFVGYGAYDYGIIHRLDLWGQGTLVTVSS VL: DAQLTQSPSTLSASVGDRVTITCQSSKSIYNNNWLSWYQQKPGKPPKLLIYDASDLASGVPSRFSGSGSGTEFTLTISSLQPDDFATYYCAGGYSGDSDYAFGGGTKVEIK ?
1.5

Entry h10C3.v14 (antibody, V domains shown, Humanized, human IgG1; also called 10C3 Humanized polished mAb) VH: EVQLVESGGGLVQPGGSLRLSCAASGFSLSGYTMGWVRQAPGKGLEYIGVISSGGTTYYTNWAKGRFTISKDNSKNTLYLQMGSLRAEDMAVYYCARVAFTAYGGGGFPTLHRLDLWGQGTLVTVSS VL: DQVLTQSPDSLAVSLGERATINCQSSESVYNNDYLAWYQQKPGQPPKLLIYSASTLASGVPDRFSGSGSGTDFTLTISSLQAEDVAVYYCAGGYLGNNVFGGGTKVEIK please
0.9

Try this binder too: Rbt9E3.FN (antibody, V domains shown, Recombinant rabbit monoclonal antibody, Expi293, protein A purified) VH: QSVEESGGRLVTPGTPLTLTCTVSGFSLSSNAMSWVRQAPGKGLEWIGIISSSGSTYSASWAKGRFTISKTSTTMDLKITSPTTEDTATYFCARVGFFVGYGAYDYGIIHRLDLWGQGTLVTVSS VL: AAVLTQTPSPVSAAVGGTVSISCQSSKSIYNNNWLSWYQQKPGQPPKLLIYDASDLASGVPSRFEGSGSGTEFTLTISDLECDDAATYYCAGGYSGDSDYAFGGGTEVVVK
0.6
